Taken from ChEMBL document CHEMBL3425484.

Quick list: IC50 per entry.
test system: Coxsackievirus; assay: Antiviral activity against Coxsackievirus B3 infected in african green monkey Vero cells assessed as reduction in viral-induced cytopathic effect; assay type: functional, organism-based

ENTRY SMILES | IC50
N#Cc1cccc(S(=O)(=O)N2C[C@@H]3CCCN4CCC[C@@H]([C@H]34)[C@H]2/C=C/CC(=O)O)c1 | 13.1 µM
COC(=O)CCC[C@@H]1[C@H]2CCCN3CCC[C@@H](CN1S(=O)(=O)c1cccc([N+](=O)[O-])c1)[C@@H]23 | 3.51 µM
COC(=O)C/C=C\[C@@H]1[C@H]2CCCN3CCC[C@@H](CN1S(=O)(=O)c1ccc(C(F)(F)F)cc1)[C@@H]23 | 8.17 µM
O=C(O)CCC[C@@H]1[C@H]2CCCN3CCC[C@@H](CN1S(=O)(=O)c1ccccc1[N+](=O)[O-])[C@@H]23 | 78.9 µM
COC(=O)C/C=C\[C@@H]1[C@H]2CCCN3CCC[C@@H](CN1S(=O)(=O)c1ccc([N+](=O)[O-])cc1)[C@@H]23 | 7.02 µM
COC(=O)CCC[C@@H]1[C@H]2CCCN3CCC[C@@H](CN1S(=O)(=O)c1cccc(C#N)c1)[C@@H]23 | 11.7 µM
O=S(=O)(c1ccc(C(F)(F)F)cc1)N1C[C@@H]2CCCN3CCC[C@@H]([C@H]23)[C@H]1/C=C\CCO | 4.17 µM

---

test: Selectivity index, ratio of TC50 for african green monkey Vero cells to IC50 for Coxsackievirus B3 infected in african green monkey Vero cells; assay type: toxicity, cell-based; details: read-out: Selectivity Index
MEASUREMENT NAME: selectivity ratio

ENTRY SMILES | MEASUREMENT NAME | READING
O=C(O)C/C=C\[C@@H]1[C@H]2CCCN3CCC[C@@H](CN1S(=O)(=O)c1ccccc1[N+](=O)[O-])[C@@H]23 | selectivity ratio | 36.8
O=C(O)C/C=C\[C@@H]1[C@H]2CCCN3CCC[C@@H](CN1S(=O)(=O)c1cccc([N+](=O)[O-])c1)[C@@H]23 | selectivity ratio | 7
COC(=O)CCC[C@@H]1[C@H]2CCCN3CCC[C@@H](CN1S(=O)(=O)c1cccc(C#N)c1)[C@@H]23 | selectivity ratio | 24.6
N#Cc1cccc(S(=O)(=O)N2C[C@@H]3CCCN4CCC[C@@H]([C@H]34)[C@H]2/C=C/CC(=O)O)c1 | selectivity ratio | 35.5
O=C(O)C/C=C\[C@@H]1[C@H]2CCCN3CCC[C@@H](CN1S(=O)(=O)c1ccc([N+](=O)[O-])cc1)[C@@H]23 | selectivity ratio | 6.2
O=[N+]([O-])c1ccccc1S(=O)(=O)N1C[C@@H]2CCCN3CCC[C@@H]([C@H]23)[C@H]1CCCCO | selectivity ratio | 6.8
COC(=O)C/C=C\[C@@H]1[C@H]2CCCN3CCC[C@@H](CN1S(=O)(=O)c1cccc(C(F)(F)F)c1)[C@@H]23 | selectivity ratio | 88.3

---

test: Selectivity index, ratio of TC50 for african green monkey Vero cells to IC50 for Coxsackievirus B3 infected in african green monkey Vero cells; format: toxicity, cell-based; conditions: read-out: Selectivity Index
Lab note: compare selectivity ratio against 10. Equal or greater, write 1. Smaller, write 0.

ENTRY SMILES | ASSIGNED LABEL
O=C(O)C/C=C/[C@@H]1[C@H]2CCCN3CCC[C@@H](CN1S(=O)(=O)c1ccc(C(F)(F)F)cc1)[C@@H]23 | 1
COC(=O)C/C=C\[C@@H]1[C@H]2CCCN3CCC[C@@H](CN1S(=O)(=O)c1cccc([N+](=O)[O-])c1)[C@@H]23 | 1
COC(=O)C/C=C\[C@@H]1[C@H]2CCCN3CCC[C@@H](CN1S(=O)(=O)c1ccc([N+](=O)[O-])cc1)[C@@H]23 | 1
O=C(O)C/C=C\[C@@H]1[C@H]2CCCN3CCC[C@@H](CN1S(=O)(=O)c1cc(Br)c(Br)s1)[C@@H]23 | 0
N#Cc1ccc(S(=O)(=O)N2C[C@@H]3CCCN4CCC[C@@H]([C@H]34)[C@H]2/C=C\CC(=O)O)cc1 | 1
COC(=O)CCC[C@@H]1[C@H]2CCCN3CCC[C@@H](CN1S(=O)(=O)c1cccc([N+](=O)[O-])c1)[C@@H]23 | 1

---

assay: Selectivity index, ratio of TC50 for african green monkey Vero cells to IC50 for Coxsackievirus B3 infected in african green monkey Vero cells; type: toxicity, cell-based; settings: read-out: Selectivity Index
Lab note: compare selectivity ratio against 20. Equal or greater, write Criterion met. Smaller, write Criterion not met.

ENTRY SMILES | ASSIGNED LABEL
COC(=O)CCC[C@@H]1[C@H]2CCCN3CCC[C@@H](CN1S(=O)(=O)c1ccccc1[N+](=O)[O-])[C@@H]23 | Criterion not met
O=C(O)CCC[C@@H]1[C@H]2CCCN3CCC[C@@H](CN1S(=O)(=O)c1ccccc1[N+](=O)[O-])[C@@H]23 | Criterion not met
O=[N+]([O-])c1ccccc1S(=O)(=O)N1C[C@@H]2CCCN3CCC[C@@H]([C@H]23)[C@H]1/C=C\CCO | Criterion met
N#Cc1cccc(S(=O)(=O)N2C[C@@H]3CCCN4CCC[C@@H]([C@H]34)[C@H]2/C=C\CC(=O)O)c1 | Criterion met
O=C(O)C/C=C/[C@@H]1[C@H]2CCCN3CCC[C@@H](CN1S(=O)(=O)c1ccccc1C(F)(F)F)[C@@H]23 | Criterion met
